test system: Pseudomonas UI 18; experiment: In vitro minimal inhibitory concentration, Pseudomonas UI 18; type: cell-based; conditions: UI18
Below, each entry is listed alongside its reported MIC.

[
  {
    "molecule": "CC(=O)N[C@H](CC(N)=O)C(=O)Nc1ccc(-c2ccc(C(=O)N[C@@H](C(=O)NC3C(=O)N4C(C(=O)O)=C(CSc5nnnn5C)CSC34)c3ccccc3)c(=O)[nH]2)cc1 (stereo partly drawn) [Example 23]",
    "MIC": "6.3 µg/mL"
  },
  {
    "molecule": "Cn1nnnc1SCC1=C(C(=O)O)N2C(=O)C(NC(=O)[C@H](NC(=O)c3ccc(-c4ccc(NC(=O)[C@@H]5CCC(=O)N5)cc4)[nH]c3=O)c3ccccc3)C2SC1 (stereo partly drawn) [Example 7]",
    "MIC": "6.3 µg/mL"
  },
  {
    "molecule": "CC(=O)NCCCC[C@H](NC(C)=O)C(=O)Nc1ccc(-c2ccc(C(=O)N[C@@H](C(=O)NC3C(=O)N4C(C(=O)O)=C(COC(C)=O)CSC34)c3ccccc3)c(=O)[nH]2)cc1 (stereo partly drawn) [Example 35]",
    "MIC": "6.3 µg/mL"
  },
  {
    "molecule": "CC(=O)OCC1=C(C(=O)O)N2C(=O)C(NC(=O)[C@H](NC(=O)c3ccc(-c4ccc(NC(=O)[C@@H]5CCCN5C(C)=O)cc4)[nH]c3=O)c3ccccc3)C2SC1 (stereo partly drawn) [Example 12]",
    "MIC": "6.3 µg/mL"
  },
  {
    "molecule": "CC(=O)NC(C)C(=O)Nc1ccc(-c2ccc(C(=O)N[C@@H](C(=O)NC3C(=O)N4C(C(=O)O)=C(COC(C)=O)CSC34)c3ccccc3)c(=O)[nH]2)cc1 (mixture of isomers) [Example 3]",
    "MIC": "6.3 µg/mL"
  },
  {
    "molecule": "CC(=O)OCC1=C(C(=O)O)N2C(=O)C(NC(=O)[C@H](NC(=O)c3ccc(-c4ccc(NC(=O)[C@@H]5CC(O)CN5C(C)=O)cc4)[nH]c3=O)c3ccccc3)C2SC1 (stereo partly drawn) [Example 31]",
    "MIC": "12.5 µg/mL"
  },
  {
    "molecule": "CC(=O)N[C@H](C)C(=O)Nc1ccc(-c2ccc(C(=O)N[C@@H](C(=O)NC3C(=O)N4C(C(=O)O)=C(CSc5nnnn5C)CSC34)c3ccc(O)cc3)c(=O)[nH]2)cc1 (stereo partly drawn) [Example 25]",
    "MIC": "3.1 µg/mL"
  },
  {
    "molecule": "CC(=O)N[C@@H](CCC(N)=O)C(=O)Nc1ccc(-c2ccc(C(=O)N[C@@H](C(=O)NC3C(=O)N4C(C(=O)O)=C(COC(C)=O)CSC34)c3ccccc3)c(=O)[nH]2)cc1 (stereo partly drawn) [Example 14]",
    "MIC": "6.3 µg/mL"
  },
  {
    "molecule": "CC(=O)N[C@H](C)C(=O)Nc1ccc(-c2ccc(C(=O)N[C@@H](C(=O)NC3C(=O)N4C(C(=O)O)=C(CSc5nnnn5CCC(=O)O)CSC34)c3ccccc3)c(=O)[nH]2)cc1 (stereo partly drawn) [Example 41]",
    "MIC": "12.5 µg/mL"
  },
  {
    "molecule": "CC(=O)N[C@@H](C)C(=O)Nc1ccc(-c2ccc(C(=O)N[C@@H](C(=O)NC3C(=O)N4C(C(=O)O)=C(CSc5nnc(C)s5)CSC34)c3ccccc3)c(=O)[nH]2)cc1 (stereo partly drawn) [Example 15]",
    "MIC": "12.5 µg/mL"
  },
  {
    "molecule": "CC(=O)OCC1=C(C(=O)O)N2C(=O)C(NC(=O)[C@H](NC(=O)c3ccc(-c4ccc(NC(=O)[C@@H]5CCC(=O)N5C)cc4)[nH]c3=O)c3ccccc3)C2SC1 (stereo partly drawn) [Example 34]",
    "MIC": "6.3 µg/mL"
  },
  {
    "molecule": "CC(=O)N[C@H](C)C(=O)Nc1cccc(-c2ccc(C(=O)N[C@@H](C(=O)NC3C(=O)N4C(C(=O)O)=C(COC(C)=O)CSC34)c3ccccc3)c(=O)[nH]2)c1 (stereo partly drawn) [Example 28]",
    "MIC": "12.5 µg/mL"
  },
  {
    "molecule": "CC(=O)N[C@H](C)C(=O)Nc1ccc(-c2ccc(C(=O)N[C@@H](C(=O)NC3C(=O)N4C(C(=O)O)=C(COC(C)=O)CSC34)c3ccc(O)cc3)c(=O)[nH]2)cc1 (stereo partly drawn) [Example 8]",
    "MIC": "3.1 µg/mL"
  },
  {
    "molecule": "CC(=O)N[C@H](C)C(=O)Nc1ccc(-c2ccc(C(=O)N[C@@H](C(=O)NC3C(=O)N4C(C(=O)O)=C(COC(N)=O)CSC34)c3ccccc3)c(=O)[nH]2)cc1 (stereo partly drawn) [Example 24]",
    "MIC": "12.5 µg/mL"
  },
  {
    "molecule": "CC(=O)NC(C)C(=O)Nc1ccc(-c2ccc(C(=O)N[C@@H](C(=O)NC3C(=O)N4C(C(=O)O)=C(CSc5nnnn5C)CSC34)c3ccccc3)c(=O)[nH]2)cc1 (mixture of isomers) [Example 18]",
    "MIC": "6.3 µg/mL"
  },
  {
    "molecule": "CC(=O)NCCCCC(NC(C)=O)C(=O)Nc1ccc(-c2ccc(C(=O)N[C@@H](C(=O)NC3C(=O)N4C(C(=O)O)=C(CSc5nnnn5C)CSC34)c3ccccc3)c(=O)[nH]2)cc1 (mixture of isomers) [Example 26]",
    "MIC": "12.5 µg/mL"
  },
  {
    "molecule": "CC(=O)N[C@H](CC(N)=O)C(=O)Nc1ccc(-c2ccc(C(=O)N[C@@H](C(=O)NC3C(=O)N4C(C(=O)O)=C(COC(C)=O)CSC34)c3ccccc3)c(=O)[nH]2)cc1 (stereo partly drawn) [Example 13]",
    "MIC": "6.3 µg/mL"
  },
  {
    "molecule": "CC(=O)N[C@@H](C)C(=O)Nc1ccc(-c2ccc(C(=O)N[C@@H](C(=O)NC3C(=O)N4C(C(=O)O)=C(COC(C)=O)CSC34)c3ccccc3)c(=O)[nH]2)cc1 (stereo partly drawn) [Example 5]",
    "MIC": "6.3 µg/mL"
  },
  {
    "molecule": "CC(=O)N[C@H](C)C(=O)Nc1ccc(-c2ccc(C(=O)N[C@@H](C(=O)NC3C(=O)N4C(C(=O)O)=C(CSc5nnnn5CC(=O)O)CSC34)c3ccccc3)c(=O)[nH]2)cc1 (stereo partly drawn) [Example 1]",
    "MIC": "6.3 µg/mL"
  },
  {
    "molecule": "CC(=O)OCC1=C(C(=O)O)N2C(=O)C(NC(=O)[C@H](NC(=O)c3ccc(-c4ccc(NC(=O)[C@@H]5CC(OC(C)=O)CN5C(C)=O)cc4)[nH]c3=O)c3ccccc3)C2SC1 (stereo partly drawn) [Example 32]",
    "MIC": "12.5 µg/mL"
  },
  {
    "molecule": "O=C(O)Cn1nnnc1SCC1=C(C(=O)O)N2C(=O)C(NC(=O)[C@H](NC(=O)c3ccc(-c4ccc(NC(=O)[C@@H]5CCC(=O)N5)cc4)[nH]c3=O)c3ccccc3)C2SC1 (stereo partly drawn) [Example 16]",
    "MIC": "6.3 µg/mL"
  }
]
